Measured values drawn from patent US20250333467A1 for this set.

# tgt: T1, human RXFP1 (human, UniProt Q9HBX9 1-757)
# T1 sequence (looked up): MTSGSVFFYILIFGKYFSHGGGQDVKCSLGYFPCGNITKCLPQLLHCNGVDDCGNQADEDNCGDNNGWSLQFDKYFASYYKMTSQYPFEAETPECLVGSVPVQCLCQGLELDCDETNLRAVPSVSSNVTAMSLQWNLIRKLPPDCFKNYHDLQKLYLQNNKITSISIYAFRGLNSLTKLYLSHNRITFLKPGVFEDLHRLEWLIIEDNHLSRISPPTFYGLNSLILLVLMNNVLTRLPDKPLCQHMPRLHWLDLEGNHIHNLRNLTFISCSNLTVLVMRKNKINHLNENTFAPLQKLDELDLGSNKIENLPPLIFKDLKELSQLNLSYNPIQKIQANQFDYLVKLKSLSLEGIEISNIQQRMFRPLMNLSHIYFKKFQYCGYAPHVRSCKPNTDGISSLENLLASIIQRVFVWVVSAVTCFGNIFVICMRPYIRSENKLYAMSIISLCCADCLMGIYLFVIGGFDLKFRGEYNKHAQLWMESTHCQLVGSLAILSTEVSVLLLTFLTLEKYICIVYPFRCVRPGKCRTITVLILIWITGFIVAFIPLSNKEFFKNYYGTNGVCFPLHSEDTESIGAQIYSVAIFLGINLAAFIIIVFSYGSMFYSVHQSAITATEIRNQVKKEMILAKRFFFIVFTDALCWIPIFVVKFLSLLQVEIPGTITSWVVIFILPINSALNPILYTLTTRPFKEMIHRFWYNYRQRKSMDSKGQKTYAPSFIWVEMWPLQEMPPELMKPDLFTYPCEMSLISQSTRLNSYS
# test name: cell-based or functional assay
measured metric: Potency (cAMP, transient hRXFP1 in HEK293) (nM)
Numeric only. Scale: nM

## Task What value of Potency (cAMP, transient hRXFP1 in HEK293) has been recorded for this entry: SEQ ID NO: 87 (Fc fusion) DKTHTCPPCPAPEAAGGPSVFLFPPKPKDTLMISRTPEVTCVVVDVSHEDPEVKFNWYVDGVEVHNAKTKPREEQYNSTYRVVSVLTVLHQDWLNGKEYKCKVSNKALAAPIEKTISKAKGQPREPQVYTLPPSRDELTKNQVSLTCLVKGFYPSDIAVEWESNGQPENNYKTTPPVLDSDGSFFLYSKLTVDKSRWQQGNVFSCSVLHEALHSHYTQKSLSLSPGKGGSDSWQEEVIKLCGRELVRAQIAICGKSTASDAAGAEAEAGARQLYSALANKCCHVGCTKRSLAQFC
## Result 8.5

## Task What value of Potency (cAMP, transient hRXFP1 in HEK293) has been recorded for this entry: SEQ ID NO: 121 (Fc fusion) DKTHTCPPCPAPEAAGGPSVFLFPPKPKDTLMISRTPEVTCVVVDVSHEDPEVKFNWYVDGVEVHNAKTKPREEQYNSTYRVVSVLTVLHQDWLNGKEYKCKVSNKALAAPIEKTISKAKGQPREPQVYTLPPSRDELTKNQVSLTCLVKGFYPSDIAVEWESNGQPENNYKTTPPVLDSDGSFFLYSKLTVDKSRWQQGNVFSCSVLHEALHSHYTQKSLSLSPGKGGSDSLQEEVIKLCGRELVRAQIAICGKSTASDAAGAEAEAGARQLYSALANKCCHVGCTKRSLAQFC
## Result 5.5

## Task Param item = SEQ ID NO: 126 (Fc fusion) DKTHTCPPCPAPEAAGGPSVFLFPPKPKDTLMISRTPEVTCVVVDVSHEDPEVKFNWYVDGVEVHNAKTKPREEQYNSTYRVVSVLTVLHQDWLNGKEYKCKVSNKALAAPIEKTISKAKGQPREPQVYTLPPSRDELTKNQVSLTCLVKGFYPSDIAVEWESNGQPENNYKTTPPVLDSDGSFFLYSKLTVDKSRWQQGNVFSCSVLHEALHSHYTQKSLSLSPGKGGSDSWQEEVIKLCGRELVRAQIAICGKSTASDAAGAEAEAGARQLYSALANKCCKVGCTKRSLAQFC ; retrieve measured Potency (cAMP, transient hRXFP1 in HEK293).
## Result 8.3

## Task # lookup: Potency (cAMP, transient hRXFP1 in HEK293) of SEQ ID NO: 122 (Fc fusion) DKTHTCPPCPAPEAAGGPSVFLFPPKPKDTLMISRTPEVTCVVVDVSHEDPEVKFNWYVDGVEVHNAKTKPREEQYNSTYRVVSVLTVLHQDWLNGKEYKCKVSNKALAAPIEKTISKAKGQPREPQVYTLPPSRDELTKNQVSLTCLVKGFYPSDIAVEWESNGQPENNYKTTPPVLDSDGSFFLYSKLTVDKSRWQQGNVFSCSVLHEALHSHYTQKSLSLSPGKGGSDSIQEEVIKLCGRELVRAQIAICGKSTASDAAGAEAEAGARQLYSALANKCCHVGCTKRSLAQFC
## Result 6.5
